assay: Selectivity ratio of IC50 for human DHFR to IC50 for Toxoplasma gondii DHFR
Reported values of Ratio IC50 for individual entries
result type: Ratio IC50

>  <test smiles>
Cc1nc(N)nc(N)c1CN1CCN(c2cc(Cl)ccc2-c2ccccn2)CC1

>  <result type>
Ratio IC50

>  <reported measurement>
6.5

$$$$
>  <test smiles>
Cc1nc(N)nc(N)c1CN1CCN(c2cccc(-c3ccccc3)c2)CC1

>  <result type>
Ratio IC50

>  <reported measurement>
1

$$$$
>  <test smiles>
Cc1nc(N)nc(N)c1C(=O)N1CCN(c2cccc(-c3cccc(C#N)c3)c2)CC1

>  <result type>
Ratio IC50

>  <reported measurement>
> 3.3

$$$$
>  <test smiles>
Nc1ncc(CN2CCN(c3cccc(C(F)(F)F)c3)CC2)c(N)n1

>  <result type>
Ratio IC50

>  <reported measurement>
0.12

$$$$
>  <test smiles>
Nc1nc(Cl)c2cc(-c3cccc(Cl)c3)[nH]c2n1

>  <result type>
Ratio IC50

>  <reported measurement>
< 1

$$$$
>  <test smiles>
Nc1nc(N)c(-c2c[nH]c3ccccc23)c(C2CC2)n1

>  <result type>
Ratio IC50

>  <reported measurement>
2.9

$$$$
>  <test smiles>
Nc1ncc(CN2CCN(c3cc(Cl)ccc3OCc3cccc(C(F)(F)F)c3)CC2)c(N)n1

>  <result type>
Ratio IC50

>  <reported measurement>
> 80

$$$$
>  <test smiles>
Nc1ncc(Cn2cc(-c3cccc(C(F)(F)F)c3)c3ccccc32)c(N)n1

>  <result type>
Ratio IC50

>  <reported measurement>
> 10

$$$$
>  <test smiles>
Cc1nc(N)nc(N)c1C(=O)N1CCN(c2cccc(-c3ccccc3)c2)CC1

>  <result type>
Ratio IC50

>  <reported measurement>
> 4

$$$$
>  <test smiles>
Cn1cc(-c2c(N)nc(N)nc2C2CC2)c2ccccc21

>  <result type>
Ratio IC50

>  <reported measurement>
6.1

$$$$
>  <test smiles>
Nc1ncc(Cn2ccc3c(-c4ccc(C(F)(F)F)cc4)cccc32)c(N)n1

>  <result type>
Ratio IC50

>  <reported measurement>
> 3.5

$$$$
>  <test smiles>
Nc1ncc(N2CCN(c3ccc(Cl)c(Cl)c3)CC2)c(N)n1

>  <result type>
Ratio IC50

>  <reported measurement>
10

$$$$
>  <test smiles>
Cc1nc(N)nc(N)c1CN1CCN(c2cccc(-c3cccc(C#N)c3)c2)CC1

>  <result type>
Ratio IC50

>  <reported measurement>
4.7

$$$$
